Quick reference: pEC50 of the listed items.
Target: UniProt:P62508
Test: ERRE luciferase reporter assay in HEK293 cells transfected with pcDNA3.1 ERRγ
Conditions: HEK293 cells transfected with ERRE reporter construct and pcDNA3.1 ERRγ; compound for 24 hours; luciferase activity
pEC50: −log10 of the molar value.

Example compounds with recorded pEC50:
# Smiles Notation, Recorded Endpoint, Result
measured = [
    ("COc1ccc(-c2nnc(-c3ccc(Br)cc3)o2)cc1", "pEC50", "> 6.00"),
    ("Cc1ccc(-c2nnc(-c3ccc(C)o3)s2)cc1", "pEC50", "> 6.00"),
    ("Cc1ccc(-c2nnc(-c3ccccc3)o2)cc1", "pEC50", "> 6.00"),
    ("COc1ccc(-c2nnc(-c3ccccc3)o2)c([N+](=O)[O-])c1", "pEC50", "> 6.00"),
    ("CC(C)(C)c1ccc(-c2nnc(-c3ccccc3[N+](=O)[O-])s2)cc1", "pEC50", "> 6.00"),
]

Now look at this one.
Query :: Quick one: pEC50 for Cc1ccc(-c2nnc(-c3ccccn3)o2)cc1 ?
Result :: > 6.00

----------
Molecular target: ERRγ (Homo sapiens)
Sequence (P62508 whole entry): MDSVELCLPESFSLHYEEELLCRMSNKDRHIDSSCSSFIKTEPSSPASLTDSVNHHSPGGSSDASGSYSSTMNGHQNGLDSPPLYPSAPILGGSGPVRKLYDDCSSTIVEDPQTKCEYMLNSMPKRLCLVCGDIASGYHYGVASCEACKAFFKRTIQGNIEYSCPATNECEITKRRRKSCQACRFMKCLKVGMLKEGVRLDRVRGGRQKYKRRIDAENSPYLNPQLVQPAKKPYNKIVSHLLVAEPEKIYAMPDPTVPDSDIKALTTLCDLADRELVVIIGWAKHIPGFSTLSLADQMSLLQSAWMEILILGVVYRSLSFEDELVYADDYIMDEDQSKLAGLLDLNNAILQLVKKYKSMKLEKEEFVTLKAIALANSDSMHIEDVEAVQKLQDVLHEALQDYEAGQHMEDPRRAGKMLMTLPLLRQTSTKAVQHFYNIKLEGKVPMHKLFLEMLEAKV
Experiment: ERRE luciferase reporter assay in HEK293 cells transfected with pcDNA3.1 ERRγ
Settings: HEK293 cells transfected with ERRE reporter construct and pcDNA3.1 ERRγ; compound for 24 hours; luciferase activity
Quick reference: EC50 of the listed items.

Example compounds with recorded EC50:
# Smiles Notation, Result
records = [
    ("Cc1ccc(-c2nnc(-c3ccc([N+](=O)[O-])cc3)o2)cc1", "< 1000 nM"),
    ("FC(F)(F)c1cccc(-c2nnc(-c3cccnc3Cl)s2)c1", "1000 to 5000 nM"),
    ("Clc1ccccc1-c1nnc(-c2cccc3ncccc23)s1", "< 1000 nM"),
    ("COC(=O)c1cccc(-c2nnc(-c3ccc(C(F)(F)F)cc3)s2)c1", "1000 to 5000 nM"),
    ("c1ccc(-c2nnc(-c3cccs3)o2)cc1", "< 1000 nM"),
]

Query :: Quick one: EC50 for COc1ccc(-c2nnc(-c3cccc(C(F)(F)F)c3)o2)cc1 ?
Result :: > 5000 nM

Query :: Quick one: EC50 for COc1ccc(-c2nnc(-c3ccc(C)o3)o2)cc1 ?
Result :: < 1000 nM

Query :: Quick one: EC50 for Cc1ccc(-c2nnc(-c3cccs3)o2)cc1 ?
Result :: < 1000 nM

Query :: Quick one: EC50 for O=[N+]([O-])c1ccccc1Cc1nnc(-c2ccc(C(F)(F)F)cc2)o1 ?
Result :: < 1000 nM

Query :: Quick one: EC50 for FC(F)(F)c1ccc(-c2nnc(-c3ccnc4ccccc34)o2)cc1 ?
Result :: > 5000 nM

----------
Molecular target: ERRγ (Homo sapiens)
Construct: expressed in transfected cells; host or cells: HEK293
Test: ERRE luciferase reporter assay in HEK293 cells transfected with pcDNA3.1 ERRγ
Type: cell-based
Parameters: key: * <1 μM; ** 1-5 μM; *** >5 μM; i.a. (inactive)
Conditions: HEK293 cells transfected with ERRE reporter construct and pcDNA3.1 ERRγ; compound for 24 hours; luciferase activity
Recorded Endpoint: EC50 (ERRγ) μM

Example compounds with recorded EC50 (ERRγ) μM:
# Compound, Result
data = [
    ("Oc1ccc(-c2nnc(-c3ccc4ccccc4n3)s2)cc1 [Entry 1047]", "i.a."),
    ("c1ccc(-c2nnc(-c3ccnc4ccccc34)o2)cc1 [Entry 15]", "i.a."),
    ("COc1ccc(-c2nnc(-c3ccc(C(F)(F)F)cc3)o2)cc1 [Entry 55]", "i.a."),
    ("FC(F)(F)c1ccc(-c2nnc(-c3ccc4ccccc4n3)o2)cc1 [Entry 48]", "i.a."),
    ("COc1ccc(-c2nnc(-c3ccccn3)o2)cc1 [Entry 24]", "i.a."),
    ("O=[N+]([O-])c1cccc(-c2nnc(-c3ccc(C(F)(F)F)cc3)o2)c1 [Entry 51]", "i.a."),
    ("Cc1ccc(C(=O)Nc2nnc(-c3ccccc3Cl)s2)cc1 [Entry 1034]", "i.a."),
    ("COc1ccc(-c2nnc(NC(=O)c3ccccc3)s2)cc1 [Entry 1033]", "i.a."),
]

Now look at this one.
Query :: Quick one: EC50 (ERRγ) μM for O=C(Nc1nnc(-c2ccccc2)s1)c1ccccc1 [Entry 1032] ?
Result :: i.a.

----------
Target: ERRα (Homo sapiens, UniProt P11474)
Assay: ERRE luciferase reporter assay in HEK293 cells transfected with pcDNA3.1 ERRα
Details: HEK293 cells transfected with ERRE reporter construct and pcDNA3.1 ERRα; compound for 24 hours; luciferase activity
Recorded Endpoint: EC50

Example compounds with recorded EC50:
# Smiles Notation, System, EC50
records = [
    ("Cc1ccc(-c2nnc(-c3cccc([N+](=O)[O-])c3)o2)cc1", "ERRα (Homo sapiens, UniProt P11474)", "< 1000 nM"),
    ("COc1ccc(-c2nnc(-c3cccs3)o2)cc1", "ERRα (Homo sapiens, UniProt P11474)", "< 1000 nM"),
    ("COc1ccc(-c2nnc(-c3ccccc3[N+](=O)[O-])o2)cc1", "ERRα (Homo sapiens, UniProt P11474)", "< 1000 nM"),
    ("Cc1ccc(-c2nnc(-c3ccc([N+](=O)[O-])cc3)o2)cc1", "ERRα (Homo sapiens, UniProt P11474)", "< 1000 nM"),
    ("c1ccc(-c2ccc(Cc3nnc(-c4ccccc4)s3)cc2)cc1", "ERRα (Homo sapiens, UniProt P11474)", "> 5000 nM"),
    ("FC(F)(F)c1ccc(-c2nnc(-c3ccccc3)o2)cc1", "ERRα (Homo sapiens, UniProt P11474)", "1000 to 5000 nM"),
    ("Clc1ccc(-c2nnc(-c3ccccc3)s2)cc1", "ERRα (Homo sapiens, UniProt P11474)", "< 1000 nM"),
    ("COC(=O)c1ccc(-c2nnc(-c3ccccc3Cl)s2)cc1", "ERRα (Homo sapiens, UniProt P11474)", "< 1000 nM"),
    ("O=[N+]([O-])c1ccc(-c2nnc(-c3ccccc3)o2)cc1", "ERRα (Homo sapiens, UniProt P11474)", "< 1000 nM"),
    ("Cc1ccc(-c2nnc(-c3cccc4ncccc34)s2)cc1", "ERRα (Homo sapiens, UniProt P11474)", "< 1000 nM"),
]

Query :: Quick one: EC50 for Cc1ccc(-c2nnc(-c3cccc4ccccc34)s2)cc1 ?
Result :: < 1000 nM

Query :: Quick one: EC50 for COc1ccc(-c2nnc(-c3ccccc3)s2)c(N)c1 ?
Result :: > 5000 nM

Query :: Quick one: EC50 for COc1ccc(-c2nnc(-c3ccc(Br)cc3)o2)cc1 ?
Result :: < 1000 nM

Query :: Quick one: EC50 for Cc1ccc(-c2nnc(-c3cncs3)s2)cc1 ?
Result :: < 1000 nM

Query :: Quick one: EC50 for Cc1ccc(-c2nnc(-c3ccc(C(F)(F)F)cc3)o2)o1 ?
Result :: 1000 to 5000 nM

Query :: Quick one: EC50 for O=[N+]([O-])c1ccccc1-c1nnc(-c2ccc(C(F)(F)F)cc2)o1 ?
Result :: 1000 to 5000 nM

Query :: Quick one: EC50 for COc1ccc(-c2nnc(-c3ccccc3)s2)cc1 ?
Result :: < 1000 nM

Query :: Quick one: EC50 for Cc1cccc(-c2nnc(-c3cccc(C(F)(F)F)c3)s2)n1 ?
Result :: > 5000 nM

Query :: Quick one: EC50 for O=[N+]([O-])c1ccccc1-c1nnc(-c2ccccc2)o1 ?
Result :: 1000 to 5000 nM

Query :: Quick one: EC50 for COC(=O)c1cccc(-c2nnc(-c3ccc(C(F)(F)F)cc3)s2)c1 ?
Result :: > 5000 nM

----------
Target: ERRα (Homo sapiens, UniProt P11474)
Construct: expressed in transfected cells; host or cells: HEK293
Sequence (P11474 1-423): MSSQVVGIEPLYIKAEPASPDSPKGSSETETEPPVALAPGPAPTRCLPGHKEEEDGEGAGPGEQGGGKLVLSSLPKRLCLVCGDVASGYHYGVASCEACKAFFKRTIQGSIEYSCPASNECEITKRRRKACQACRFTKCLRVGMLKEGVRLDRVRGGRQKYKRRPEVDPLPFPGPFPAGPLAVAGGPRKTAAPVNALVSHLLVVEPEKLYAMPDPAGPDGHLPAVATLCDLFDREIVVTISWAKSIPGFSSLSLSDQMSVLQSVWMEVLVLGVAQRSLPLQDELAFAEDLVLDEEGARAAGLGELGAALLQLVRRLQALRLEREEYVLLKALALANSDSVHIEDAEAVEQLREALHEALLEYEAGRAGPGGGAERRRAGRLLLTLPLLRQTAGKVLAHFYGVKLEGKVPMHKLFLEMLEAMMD
Experiment: ERRE luciferase reporter assay in HEK293 cells transfected with pcDNA3.1 ERRα
Assay type: cell-based
Details: HEK293 cells transfected with ERRE reporter construct and pcDNA3.1 ERRα; compound for 24 hours; luciferase activity
Quick reference: EC50 of the listed items.

Example compounds with recorded EC50:
# Smiles Notation, System, EC50
measured = [
    ("Nc1cccc(-c2nnc(-c3ccccc3)o2)c1", "ERRα (Homo sapiens, UniProt P11474)", "< 1000 nM"),
    ("FC(F)(F)c1cccc(-c2nnc(-c3ccccc3)o2)c1", "ERRα (Homo sapiens, UniProt P11474)", "< 1000 nM"),
    ("COc1ccc(-c2nnc(-c3ccc(OC)cc3)o2)cc1", "ERRα (Homo sapiens, UniProt P11474)", "< 1000 nM"),
    ("Cc1ccc(-c2nnc(-c3ccc(Cl)cc3)s2)cc1", "ERRα (Homo sapiens, UniProt P11474)", "< 1000 nM"),
    ("O=[N+]([O-])c1ccc(-c2nnc(-c3cccc([N+](=O)[O-])c3)o2)cc1", "ERRα (Homo sapiens, UniProt P11474)", "1000 to 5000 nM"),
    ("FC(F)(F)c1ccc(-c2nnc(-c3cccs3)o2)cc1", "ERRα (Homo sapiens, UniProt P11474)", "1000 to 5000 nM"),
    ("COc1ccc(-c2nnc(-c3ccnc4ccccc34)o2)cc1", "ERRα (Homo sapiens, UniProt P11474)", "< 1000 nM"),
    ("COc1ccc(-c2nnc(-c3cccs3)s2)cc1", "ERRα (Homo sapiens, UniProt P11474)", "< 1000 nM"),
]

Query :: Quick one: EC50 for O=[N+]([O-])c1ccccc1-c1nnc(-c2ccc(Cl)cc2)o1 ?
Result :: > 5000 nM

Query :: Quick one: EC50 for c1ccc(-c2nnc(-c3ccccc3)s2)cc1 ?
Result :: < 1000 nM

Data credit: patent US20260274807A1
